Measured values drawn from patent US20070078174A1 for this set.

test: clinical; details: male, human, plasma
Structures can show the parent of a compound that is named as a salt.
experimental endpoint: half-life

Can you look up the measured half-life of Clc1ccc2nsnc2c1NC1=NCCN1 [tizanidine, Tizanidine hydrochloride] for me? 1.5 to 1.7 h

###

Experiment: clinical
Conditions: human, plasma, other: sublingual and oral
Protocol: Two groups were randomized and there was a one week washout period between administrations. The volunteers were in the fasted state when the drugs were administered. […] The oral formulation was administered with a glass of water. […] The samples were blinded from the analysts. […]
Counter-ions that a name gives are not always drawn.
experimental endpoint: half-life

Can you look up the measured half-life of Clc1ccc2nsnc2c1NC1=NCCN1 [tizanidine, Tizanidine hydrochloride] for me? 1.5 to 1.7 h
